# MEASUREMENT PROTOCOL: Tmax in Sprague-Dawley rat hypothalamus at 10 mg/kg, po administered as single dose by LC-MS/MS analysis
# Type: ADME, organism-based
RESULT TYPE: Tmax

I would be grateful if you could share the reported Tmax for O=C(CN1CCN(c2ccc([N+](=O)[O-])cc2)CC1)N1CCN(c2ccc([N+](=O)[O-])cc2)CC1 . 10 h

###

# MEASUREMENT PROTOCOL: Tmax in Sprague-Dawley rat prostate at 10 mg/kg, po administered as single dose by LC-MS/MS analysis
# Assay type: ADME, organism-based, Prostate gland
RESULT TYPE: Tmax
Please report the result as a number followed by the unit.

Tell me the measured Tmax of O=C(CN1CCN(c2ccc([N+](=O)[O-])cc2)CC1)N1CCN(c2ccc([N+](=O)[O-])cc2)CC1 , please. 10 h
